Each entry below carries its recorded IC50.
biological target: Truncated mTOR kinase (Homo sapiens, UniProt P42345); construct: Truncated mTOR kinase and His-tagged 4eBP1 were produced in-house; test: mTOR Assay (radiometric phosphorylation of 4eBP1); conditions: 4eBP1 substrate, 10 μM ATP, 1 hour at room temperature
Sequence (P42345 2156-2549 limits assumed): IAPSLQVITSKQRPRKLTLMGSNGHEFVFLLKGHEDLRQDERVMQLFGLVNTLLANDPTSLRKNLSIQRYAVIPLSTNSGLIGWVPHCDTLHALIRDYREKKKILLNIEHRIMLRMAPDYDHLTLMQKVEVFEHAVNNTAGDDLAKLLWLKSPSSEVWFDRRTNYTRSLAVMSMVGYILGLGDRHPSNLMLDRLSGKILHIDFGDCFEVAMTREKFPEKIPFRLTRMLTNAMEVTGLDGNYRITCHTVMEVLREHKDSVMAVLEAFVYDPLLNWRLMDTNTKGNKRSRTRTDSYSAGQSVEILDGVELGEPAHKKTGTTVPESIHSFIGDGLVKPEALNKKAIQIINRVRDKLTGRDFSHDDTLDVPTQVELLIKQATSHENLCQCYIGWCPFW

Reference set, count: 5
>  <compound>
CCC(C)n1cnc2c(-c3cncnc3)nc(N3CCOCC3)nc21 (centres unmarked)

>  <measured endpoint>
IC50

>  <experimental value>
1000 to 5000 nM

$$$$
>  <compound>
Nc1ncc(-c2nc(N3CCOCC3)nc3c2ncn3C2CCN(C(=O)c3ccccc3)C2)cn1 (centres unmarked)

>  <measured endpoint>
IC50

>  <experimental value>
< 1000 nM

$$$$
>  <compound>
Nc1ncc(-c2nc(N3CCOCC3)nc3c2ncn3Cc2c(F)cccc2F)cn1

>  <measured endpoint>
IC50

>  <experimental value>
1000 to 5000 nM

$$$$
>  <compound>
Cc1ccc(C(=O)N2CCC(n3cnc4c(-c5cnc(N)nc5)nc(N5CCOCC5)nc43)C2)s1 (centres unmarked)

>  <measured endpoint>
IC50

>  <experimental value>
< 1000 nM

$$$$
>  <compound>
CCC(C)n1cnc2c(-c3cnc(N)nc3)nc(N3CCOCC3C)nc21 (centres unmarked)

>  <measured endpoint>
IC50

>  <experimental value>
< 1000 nM

$$$$

Kindly review the next compound as well.
Notebook: pull reported IC50 for Truncated mTOR kinase (Homo sapiens, UniProt P42345), entry COCC(C)n1cnc2c(-c3cnc(N)nc3)nc(N3CCOCC3)nc21 (centres unmarked)
< 1000 nM

* * *

test system: DU145 cells; assay: Cell-based proliferation assay, DU145; conditions: Homo sapiens, DU-145, 96 h treatment, Celltiter96 Aqueous One Solution
measured endpoint: IC50

Which IC50 reading was recorded for the compound `Nc1ncc(-c2nc(N3CCOCC3)nc3c2ncn3CC2CC2)cn1` ?
1000 to 5000 nM

* * *

target: Truncated mTOR kinase (Homo sapiens); construct: Truncated mTOR kinase and His-tagged 4eBP1 were produced in-house; experiment: mTOR Assay (radiometric phosphorylation of 4eBP1); settings: 4eBP1 substrate, 10 μM ATP, 1 hour at room temperature
pIC50: −log10 of the molar value.
Measured pIC50 values are reported for all entries that follow.

>  <compound>
CC(C)C(C)n1cnc2c(-c3cnc(N)nc3)nc(N3CCOCC3)nc21 (centres unmarked) [Compound 22]

>  <experimental value>
> 6.00

$$$$
>  <compound>
CC(C1CC1)n1cnc2c(-c3cnc(N)nc3)nc(N3CCOCC3)nc21 (centres unmarked) [Compound 10]

>  <experimental value>
> 6.00

$$$$
>  <compound>
CC(COC(C)(C)C)n1cnc2c(-c3cnc(N)nc3)nc(N3CCOCC3)nc21 (centres unmarked) [Compound 5]

>  <experimental value>
5.30 to 6.00

$$$$
>  <compound>
Nc1ncc(-c2nc(N3CCOCC3)nc3c2ncn3C2CCOC2)cn1 (centres unmarked) [Compound 18]

>  <experimental value>
> 6.00

$$$$
>  <compound>
CCC(C)n1cnc2c(-c3cnc(N)nc3OC)nc(N3CCOCC3)nc21 (centres unmarked) [Compound 8]

>  <experimental value>
> 6.00

$$$$

Fill in the blank: the reported pIC50 of CCCC(=O)N1CCC(n2cnc3c(-c4cnc(N)nc4)nc(N4CCOCC4)nc32)CC1 [Compound 21] is ____.
> 6.00

Look up pIC50: COCC(C)n1cnc2c(-c3cnc(N)nc3C)nc(N3CCOCC3)nc21 (centres unmarked) [Compound 16]
< 5.30

Which pIC50 reading was recorded for the compound CC(C)(C)Cn1cnc2c(-c3cnc(N)nc3)nc(N3CCOCC3)nc21 [Compound 29] ?
> 6.00

Bench note: what pIC50 did Cc1cccc(-n2cnc3c(-c4cnc(N)nc4)nc(N4CCOCC4)nc32)c1 [Compound 27] show?
> 6.00

# pIC50 lookup, item CC1CCC(n2cnc3c(-c4cnc(N)nc4)nc(N4CCOCC4)nc32)CC1 (centres unmarked) [Compound 36]
> 6.00

Which pIC50 value belongs to Cc1nc(N)ncc1-c1nc(N2CCOCC2)nc2c1ncn2C(C)C1CC1 (centres unmarked) [Compound 15] ?
< 5.30

Which pIC50 value is on record for Nc1ncc(-c2nc(N3CCOCC3)nc3c2ncn3C2Cc3ccccc3C2)cn1 [Compound 31] ?
> 6.00

* * *

target: Truncated mTOR kinase (Homo sapiens, UniProt P42345); construct: Truncated mTOR kinase and His-tagged 4eBP1 were produced in-house; assay: mTOR Assay (radiometric phosphorylation of 4eBP1); format: biochemical; settings: 4eBP1 substrate, 10 μM ATP, 1 hour at room temperature
Each item that follows carries a reported IC50.

Record excerpt, results attached:
>  <compound>
c1ccc(Cn2cnc3c(-c4cncnc4)nc(N4CCOCC4)nc32)cc1

>  <tested target>
Truncated mTOR kinase (Homo sapiens, UniProt P42345)

>  <experimental value>
> 5 µM

$$$$
>  <compound>
Nc1ncc(-c2nc(N3CCOCC3)nc3[nH]cnc23)cn1

>  <tested target>
Truncated mTOR kinase (Homo sapiens, UniProt P42345)

>  <experimental value>
1 to 5 µM

$$$$

Returns the measured IC50 for the input compound. Input: Nc1ncc(-c2nc(N3CCOCC3)nc3c2ncn3C2CCc3ccccc3C2)cn1 (centres unmarked)
< 1 µM

// query IC50 value for entry CC1CCC(n2cnc3c(-c4cnc(N)nc4)nc(N4CCOCC4)nc32)C1 (mixture of isomers)
< 1 µM

Returns the measured IC50 for the input compound. Input: Nc1ncc(-c2nc(N3CCOCC3)nc3c2ncn3C2CCNC2)cn1 (centres unmarked)
1 to 5 µM

IC50 lookup needed for Cc1nc(N)ncc1-c1nc(N2CCOCC2)nc2c1ncn2C(C)c1ccccc1 (centres unmarked) , thanks.
> 5 µM

Query (compound): CC(c1ccccc1)n1cnc2c(-c3cnc(N)nc3)nc(N3CCOCC3)nc21 (centres unmarked) ; field requested: IC50
1 to 5 µM

Which IC50 is reported for this compound? CCC(C)n1cnc2c(-c3cnc(NC)nc3)nc(N3CCOCC3)nc21 (centres unmarked)
< 1 µM

Look up IC50 for this compound: COc1nc(N)ncc1-c1nc(N2CCOCC2)nc2c1ncn2C(C)C1CC1 (centres unmarked)
1 to 5 µM

Give its IC50 value. Item: `CCC(CC)n1cnc2c(-c3cnc(N)nc3)nc(N3CCOCC3)nc21`
< 1 µM

Which IC50 value is on record for COCC(C)n1cnc2c(-c3cnc(N)nc3OC)nc(N3CCOCC3)nc21 (centres unmarked) ?
1 to 5 µM

Request the reported IC50 associated with `Nc1ncc(-c2nc(N3CCOCC3)nc3c2ncn3CC2CC2)cn1`
< 1 µM

May I ask what IC50 has been recorded for `CC(C)(C)OC(=O)N1CCC(n2cnc3c(-c4cnc(N)nc4)nc(N4CCOCC4)nc32)CC1` ?
< 1 µM

Give its IC50 value. Item: `Nc1ncc(-c2nc(N3CCOCC3)nc3c2ncn3-c2ccccc2)cn1`
< 1 µM

* * *

Target: Truncated mTOR kinase (Homo sapiens)
Construct: Truncated mTOR kinase and His-tagged 4eBP1 were produced in-house
Assay: mTOR Assay (radiometric phosphorylation of 4eBP1)
Conditions: 4eBP1 substrate, 10 μM ATP, 1 hour at room temperature
Protocol: Truncated mTOR kinase and His-tagged 4eBP1 were produced in-house. [γ^33P]-ATP was purchased from Amersham (GE Healthcare). All chemicals, unless otherwise stated, were from Sigma-Aldrich. Phosphorylation assays were initially performed in a final volume of 20 μL in 384-well polypropylene plate (Greiner). […] The reaction was initiated by adding 10 μL/well of 20 μM ATP solution (final assay concentration 10 μM ATP and 0.4 μCi/well of [γhu 33P]-ATP). […]
pIC50: −log10 of the molar value.
measured endpoint: pIC50

// known answers, use as guide
>  <compound>
CCC(C#N)n1cnc2c(-c3cnc(N)nc3)nc(N3CCOCC3)nc21 (stereo not drawn) [Compound 23]

>  <pIC50>
> 6.00

$$$$
>  <compound>
CCC(C)n1cnc2c(-c3cnc(N)nc3C)nc(N3CCOCC3)nc21 (stereo not drawn) [Compound 14]

>  <pIC50>
< 5.30

$$$$

Now for another entry.
Endpoint output: pIC50 of Nc1ncc(-c2nc(N3CCOCC3)nc3c2ncn3C2CCCC2)cn1 [Compound 7] . Value?
> 6.00

Sourced from patent US20140066620A1
